For each record, write down the corresponding EC50.
Target: T1, human αvβ6 on 293F:huβ6 cells (human, UniProt P06756 31-1048; P18564 22-788)
T1 chain 1: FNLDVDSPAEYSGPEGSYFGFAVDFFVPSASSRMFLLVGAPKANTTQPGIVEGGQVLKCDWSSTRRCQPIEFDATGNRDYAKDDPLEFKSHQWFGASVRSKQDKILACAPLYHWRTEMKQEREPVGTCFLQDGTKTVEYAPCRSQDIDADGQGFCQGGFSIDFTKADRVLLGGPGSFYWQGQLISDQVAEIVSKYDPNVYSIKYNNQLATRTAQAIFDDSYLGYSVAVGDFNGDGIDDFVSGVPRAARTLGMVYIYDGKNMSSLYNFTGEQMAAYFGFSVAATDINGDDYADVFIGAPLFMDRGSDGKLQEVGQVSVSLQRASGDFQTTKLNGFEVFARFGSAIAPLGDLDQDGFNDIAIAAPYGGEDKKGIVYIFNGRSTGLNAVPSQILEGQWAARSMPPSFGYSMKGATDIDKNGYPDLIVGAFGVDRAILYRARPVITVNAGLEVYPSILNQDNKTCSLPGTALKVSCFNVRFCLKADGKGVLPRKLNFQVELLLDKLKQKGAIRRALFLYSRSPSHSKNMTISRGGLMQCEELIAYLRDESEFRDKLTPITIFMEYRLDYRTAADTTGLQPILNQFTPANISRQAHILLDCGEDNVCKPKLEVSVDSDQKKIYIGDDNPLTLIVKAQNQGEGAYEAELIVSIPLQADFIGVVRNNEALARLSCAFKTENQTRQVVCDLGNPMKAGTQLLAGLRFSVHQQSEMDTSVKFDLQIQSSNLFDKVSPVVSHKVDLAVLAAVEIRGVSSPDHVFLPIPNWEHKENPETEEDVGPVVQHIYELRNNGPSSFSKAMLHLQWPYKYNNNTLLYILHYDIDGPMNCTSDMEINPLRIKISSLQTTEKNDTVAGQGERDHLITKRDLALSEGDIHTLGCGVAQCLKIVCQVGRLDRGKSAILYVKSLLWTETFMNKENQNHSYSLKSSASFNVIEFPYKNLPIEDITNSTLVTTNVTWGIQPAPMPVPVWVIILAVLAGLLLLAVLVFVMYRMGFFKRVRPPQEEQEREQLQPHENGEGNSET
T1 chain 2: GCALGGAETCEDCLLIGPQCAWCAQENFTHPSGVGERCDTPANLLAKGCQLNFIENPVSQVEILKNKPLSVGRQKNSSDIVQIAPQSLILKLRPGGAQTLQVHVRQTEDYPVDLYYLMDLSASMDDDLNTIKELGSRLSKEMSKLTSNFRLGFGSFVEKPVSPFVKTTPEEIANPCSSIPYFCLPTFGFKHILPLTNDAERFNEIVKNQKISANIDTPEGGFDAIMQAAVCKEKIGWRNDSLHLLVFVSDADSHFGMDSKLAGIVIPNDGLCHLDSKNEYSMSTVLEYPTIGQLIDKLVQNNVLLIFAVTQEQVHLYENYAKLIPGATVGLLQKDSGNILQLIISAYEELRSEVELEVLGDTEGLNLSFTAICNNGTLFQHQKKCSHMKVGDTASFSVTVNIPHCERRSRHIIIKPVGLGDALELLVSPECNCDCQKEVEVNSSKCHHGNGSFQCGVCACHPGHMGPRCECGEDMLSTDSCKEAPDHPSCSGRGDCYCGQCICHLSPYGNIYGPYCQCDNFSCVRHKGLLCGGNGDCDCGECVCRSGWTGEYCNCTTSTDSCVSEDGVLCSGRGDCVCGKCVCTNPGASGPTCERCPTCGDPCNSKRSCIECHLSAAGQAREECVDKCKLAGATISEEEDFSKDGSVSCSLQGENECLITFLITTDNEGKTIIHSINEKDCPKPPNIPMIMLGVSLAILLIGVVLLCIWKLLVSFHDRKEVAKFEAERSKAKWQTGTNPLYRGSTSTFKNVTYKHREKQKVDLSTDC
Experiment: competition binding on 293F cells; 2nM m2A2-AF647 competitor
Give bare numbers, in nM.

Some binders with recorded EC50:
BINDER	EC50 (nM)
h2A2 HBLB (antibody, V domains shown) VH: QFQLVQSGAEVKKPGASVKVSCKASGYSFTDYNVNWVRQAPGQGLEWMGVINPKYGTTRYNQKFKGRVTMTRDTPTSTVYMELSSLRSEDTAVYYCTRGLNAWDYWGQGTLVTVSS VL: DIQMTQSPSSLSASVGDRVTITCGASENIYGALNWYQQKPGKAPKLLIYGATNLADGVPSRFSGSGSGRDYTFTISSLQPEDIATYYCQNVLTTPYTFGQGTKLEIKR	9
murine monoclonal antibody 2A2 (antibody, V domains shown, Mouse hybridoma IgG; also called m2A2; mouse 2A2) VH: EFQLQQSGPELVKPGASVKISCKASGYSFTDYNVNWVKQSNGKSLEWIGVINPKYGTTRYNQKFKGKATLTVDKPSSTAYMQLNSLTSEDSAVYYCTRGLNAWDYWGQGASVTVSS VL: DIQMTQSPASLSASVGETVTITCGASENIYGALNWYQRKQGKSPQLLIYGATNLADGMSSRFSGSGSGRQYSFKISSLHPDDVATYYCQNVLTTPYTFGGGTKLEIK	3

For each of the binders below, state EC50.
1. h2A2 HALA (antibody, V domains shown) VH: QFQLVQSGAEVKKPGASVKVSCKASGYSFTDYNVNWVRQAPGQGLEWMGVINPKYGTTRYNQKFKGRVTMTRDTSTSTVYMELSSLRSEDTAVYYCTRGLNAWDYWGQGTLVTVSS VL: DIQMTQSPSSLSASVGDRVTITCGASENIYGALNWYQQKPGKAPKLLIYGATNLADGVPSRFSGSGSGTDFTFTISSLQPEDIATYYCQNVLTTPYTFGQGTKLEIKR
2. c2A2 (antibody, V domains shown) VH: EFQLQQSGPELVKPGASVKISCKASGYSFTDYNVNWVKQSNGKSLEWIGVINPKYGTTRYNQKFKGKATLTVDKPSSTAYMQLNSLTSEDSAVYYCTRGLNAWDYWGQGASVTVSS VL: DIQMTQSPASLSASVGETVTITCGASENIYGALNWYQRKQGKSPQLLIYGATNLADGMSSRFSGSGSGRQYSFKISSLHPDDVATYYCQNVLTTPYTFGGGTKLEIK

Result:
1. 74
2. 4
